The reported numbers originate from the supplement of paper PMC12764529.

As shown below, each of these sequences has a reported folding stability dG unfold value.
experiment: folding stability dG unfold from chymotrypsin proteolysis; higher = more stable
Quantity measured: folding stability dG unfold (kcal/mol)

• SAGGSVDIKRIEIYHPPDDKIYIRIDAVASPEHPEDPELRKAQAEALRKPVIEELMKKLGIEPEELSAGGSA [r2_306_JUSTAS] = 0.61
• SMPPGERYRMTMKFPDGKKITLEMNPGGWWRIKVENKNGKPQHQQPIPPDNPQELAENFGIDKVTDVEPVSA [r9_1107_TrROS] = 2.02
• SAGGSAGGSAGGMTITLVDPENGVKEAEIEEVDGKLRITVVNEETGEKEEIELPLEELLSAGGSAGGSAGGS [r10_772_TrROS_Hall] = 0.288
• SMKPGELVLVTETETRTFTVTPEDLPPGWKVKEVKVTVTRVALFRVTPDGRVELVEEVTSVEIEVTLEPESA [r9_747_TrROS_Hall] = 4.54
• SAGGSAGGSAGSMSVTLSTTVEVTVEPLPDYTIVTVTTTTTFPDGSTTTTVTTTPVPPDLGSAGGSAGGSAG [r3_330_JUSTAS] = 1.8
• SAGKELVLRVRLYRPVPLEEPRVEEREVVVPRKEDEPIEKVVEELLEPDWVLEVEVFDEGKLIERYYTHSAG [r5_278_TrMRF] = 1.36
• SAGGSAGGSAGGSYEVKEETEPKTGLKITTTTLPDGTIETTTINPATGEVTTTTSSPLESAGGSAGGSAGGS [r10_127_JUSTAS] = 1.89

====

experiment: folding stability dG unfold from chymotrypsin proteolysis; higher = more stable
folding stability dG unfold class ranges: low band (below 1 kcal/mol), middle band (1 kcal/mol to below 2 kcal/mol), high band (2 kcal/mol or more)

* SAGGSAMTAEEVEEKVREAFAALGVEAEVEVRESPEGGLEVLVVTGEDADLEEVKAALEELFGTDISAGGSA [r15_807_TrMRF] | high band
* SAGTIREALDNPKNKRVVIMIMIPPEDFPPGDPERYRERAREMANGIMGWFRERGLDVKIEIEIMYMPWSAG [r5_408_TrROS] | high band
* SAGGSAMIVTEDPNGVLTTTENGKVTTTTVTPVPRPDPFSDKTFTEYVVTTTTTPVAPSPITPNTLSAGGSA [r15_515_JUSTAS] | low band
* SAGGKIWIPMDFLKEIAEEGNIKEIEVNPDDGDMYTIKFPNLADKFGEPVTISIRRPPGGNPWIEIEPSAGG [r13_163_TrROS] | middle band
* SAGGMKIEVEVSDSDIESAAERIAKEVYEKIKAEGKNEDVEVTLTLPNGTRYRIVVDGKGNVKEIIESSAGG [r13_965_JUSTAS] | high band
* SKTYLVKVTIEYGGKTIEIEVEVETLEEALAAVRAALPPEERAQLPPDAKVTVEVYELPEVDEETGELLESA [r9_111_TrROS_Hall] | high band
* SAGGSAGGKKKVKYYKIKEVKIEKDEDGNYTITVKVDGKTFTITIPKEKIKPGMKLKDIVIKIKSAGGSAGG [r6_255_TrROS_Hall] | high band
* SAGGSAGGSAGSYTVTPITLKLPDGTEVDAVLTTDPAGNVTLTLTGDSPLSTLTFPASTLSAGGSAGGSAGG [r11_327_JUSTAS] | middle band
* SAGGGVPLTRSEPLGEIEFPEENIKLKISRYTSPLDGTEYIEITTDYGEGTSTSIYPPGEIEEILGGSAGGS [r16_603_JUSTAS] | middle band
* SAGGKTIEIEVKVPPGMTEEEVAKKLAEELAKELEKKTGKEIKIEIEKVEKLPNGERKVRIKIEVKPSAGGS [r8_156_TrROS_Hall] | middle band
* SAGGSAGGSMELVIKTVTVNSPSKSPEELAKEIEEKYGVKILKVEVTEDPEGGVTVTATIINKSAGGSAGGS [r12_359_JUSTAS] | middle band
* SAGSGPGETKLVEEVEIDPVGPIKDSNGNPRPIKVVTKKLVEVTILEDGTVEKKVLETVVETLPPDVPLSAG [r5_132_JUSTAS] | low band
* SAGLRIEPTPDYIKITMPGPNMANEIIKKIQEHFGDIEIDDIKPEPYPNGNNRVTIWIPLKNLPPELLKSAG [r5_857_TrROS] | middle band
* SAGGSAGGSAGGKPNEVRVANIPIYRRLENGGWELIRPLPIVVPVDASVDFVLDAFKKYSAGGSAGGSAGGS [r10_470_TrMRF] | low band

====

test: folding stability dG unfold (combined trypsin and chymotrypsin); higher = more stable
Rule: folding stability dG unfold under 1 kcal/mol gives label 0, otherwise label 1.

• SAGGSAGGSAGIPLGPDGGLIVTEGPDGPVEERLFASPEEARRWIEEHLPEGWRVVFRPLSAGGSAGGSAGG [r11_983_TrMRF] = label 1
• SAGMTQTLEVSGPSVKVTLTVAPDGSVTITTTDPNGNTTTTSLYVPPGVPVTIPLPFGGTTITATVTPASAG [r5_237_JUSTAS] = label 1
• SAGGSVTLPDATVVKVPPSQDWQEHADRLAAEIREAGADYEVSVESTPDGSVLITITVPGRTWTMVTSAGGS [r16_771_JUSTAS] = label 0
• SAGGPKLFVEEDPVEDGVVVVVETNADPVALLKALEKLFGRPVKDVRFERLPDGRLIAVARIPKDALSAGGS [r16_605_TrMRF] = label 1
• SAGGSAGGSMKIKVEVEMEKVKDPKKKGEYIYKMKIKKVEIELSEEEKEKLKELAEKLGIEVESAGGSAGGS [r12_249_TrROS_Hall] = label 1
• SAGGSAGGSAKPRVKIVEVDEEKKRVLVKTEDGEVVELEGLTPEQIEELAKALGADEVELVSAGGSAGGSAG [r3_78_TrROS_Hall] = label 1
• SAGGSAGGSMTITIKLDNVKEVEVKFNPETNVVEIKVKVDGKEYVIRMEFVDGKIYITEIKPLSAGGSAGGS [r20_60_TrROS_Hall] = label 1
• SAPMKIVKKTDNTLYIYDKKTKKIVKITINDGTITVEEITYDKKTKEKKVETKTIKLSEEQLKKLKKLLSAG [r14_245_TrROS_Hall] = label 1
• SAGGSPNIKITSKEKEGSKLKYTIQTPDKTITIEYSEGKATFKFPDGSTKTLTGKGSLEKAIKEAVLSSAGG [r13_98_JUSTAS] = label 1
• SAGGMEKAIKEIKEAAKKGEEAVIVLPKNVDPSELISAIEKETGAKVEPLEVKPLPNGELVIKIKVKSAGGS [r16_318_TrMRF] = label 1
• SAGGSALPDIEVEELVRRLLELLEEDQPFRIVVFPPGGRWLTLDELLNVPAEEIPDLVVLVFVPDLSAGGSA [r15_144_TrMRF] = label 1
• SAGGSAGGKKKVKYYKIKEVKIEKDEDGNYTITVKVDGKTFTITIPKEKIKPGMKLKDIVIKIKSAGGSAGG [r6_255_TrROS_Hall] = label 1
• SAGGSAGGSAGKIRIDARPNGNWRAHYPGGKEHEFNSPDDIKDELEKKFPNFDIIEIEPWSAGGSAGGSAGG [r11_806_TrROS] = label 0
• SAGGSAGGSKSYEIKEITFDPENNTITIVLVAPDGKIVRTETFKPGEEVVFTFENGEKVTVKASAGGSAGGS [r12_441_TrMRF] = label 1
• SAGGGDLEVELVEEREFTFPDGLRRRLLVVRFPDGFLAIPVYVRPPGGGWRLLARFVLRIGPPRPEEGSAGG [r13_494_TrMRF] = label 1
• SAGGSAGGMTARKTYEVEVPADDPDALADLAFDLPAGDTVYFRTPGPDLRAVVTDDVPVVEPAGSAGGSAGG [r6_550_TrMRF] = label 0
• SAGGSAGGAEAVEAAKAKLPPDEERTVVVPDPDDPSRVTTYTLTARGDEVEVPVTTEPVPPGLESAGGSAGG [r6_393_JUSTAS] = label 0
• SAKIRIPLEKLIDLAESIPGVEVLYDPETGLLLAFIPEIGMLILIRLEEDPEDPDNVEVDIEIIPLSPFSAG [r14_604_TrMRF] = label 1
• SASSSSSSYNVTIDPATGTVTVTNPDGSTTTVPPGSTLTVTSTSSDGGSALGSSTPSTSTTTIPVPAGTSAG [r14_366_JUSTAS] = label 0
• SAGGSAGGSAGGEEVTIVVKSKEDIEALLPPGWKVTKIEEIYVDKETGEKYYKITVKKESAGGSAGGSAGGS [r10_256_TrROS_Hall] = label 1
• SAGGSPAPVRRTVTQLLKVGDKLETRVVEEVVWVPEPPPPPVIPIPEDRGLNEEPVPGTRELTFDAGSAGGS [r8_28_JUSTAS] = label 0
• SANDDDWVTVIFEIPIVRKDPDGKPEKHPFRLMVQVHPDGRVEINIMYPNGRPIASQTVPPGQTLEDFISAG [r14_559_TrROS] = label 1
• SAGGSAGGKPKTYIILVIEDPENDKYLALLFDENGKLIGTAPFKSIDELLEKLPKNVKVIVLPASAGGSAGG [r6_492_TrMRF] = label 1
• SAGGSAGSKPVTINWKITHPDGTPTTIPFSFPTEEQALEEALKAAEALAKEAGYPDFKIEIDEIIPSAGGSA [r15_698_TrMRF] = label 0
• SAGGSAGGSAGEEVLTLTFPVPPDAPPPGLEAIRESLPGLEDVELDAEELPDGTVRVVLSSAGGSAGGSAGG [r17_205_TrMRF] = label 0
• SAGGSAGGMILIKNEDGSLYLIEVETVTVTVKVKLPEELKELLKGIKPGDTITVTVTKVRIVKLSAGGSAGG [r6_907_TrROS_Hall] = label 1
• SAGGSAMKVDPSTKVVTVTDPKTGKEYRVNLPDVPPEKGVEVKVDNGKVTVKTEEGVRVIPYSELKSAGGSA [r15_864_JUSTAS] = label 0
